Origin of the recorded values: ChEMBL document CHEMBL4251747

measure name: Ki (µM)
API: value field is a number in µM; no unit string.

Given the entry Cn1cc(-c2ccncc2)cc(N)c1=O , what Ki was observed with Dual specificity protein kinase TTK (Homo sapiens, UniProt P33981)? 236

====

measure name: Ki (µM)
API: value field is a number in µM; no unit string.

Given the entry CN(C)Cc1ccc(-c2c[nH]c(=O)c(N)c2)cc1 , what Ki was observed with Aurora kinase B/Inner centromere protein (Homo sapiens, UniProt Q96GD4)? 12.9
